Reported values of CC50 for individual entries
- Tested on: MDCK
- assay-overview: Cytotoxicity against MDCK cells after 48 hrs by cell-titre glo luminescence assay
- Assay type: cell-based, Canis lupus familiaris
- cond: dog
// note: answer is a bare numeric in µM

>  <input-smiles>
O=C(O)/C(O)=C/C(=O)C1(Cc2ccc(Cl)cc2)CCN(Cc2ccccc2)CC1

>  <target-system>
MDCK

>  <CC50 (µM)>
284

$$$$

Moving on to the next compound.
Field CC50 (entry `CN(Cc1cc(=O)c(O)cn1-c1ccc(-c2nnn[nH]2)cc1)c1ccc(Cl)cc1` ) reads 280

* * *

- target-system: Polymerase acidic protein (Influenza A virus (A/Puerto Rico/8/1934(H1N1)), UniProt P03433)
experimental-endpoint: IC50 (µM)
# number only, unit µM dropped from output

See these solved cases before continuing.
>  <input-smiles>
Cc1c(O)c(=O)ccn1-c1ccccc1

>  <target-system>
Polymerase acidic protein (Influenza A virus (A/Puerto Rico/8/1934(H1N1)), UniProt P03433)

>  <IC50 / µM>
18

$$$$
>  <input-smiles>
Cc1cc(=O)c(O)cn1C1CCOCC1

>  <target-system>
Polymerase acidic protein (Influenza A virus (A/Puerto Rico/8/1934(H1N1)), UniProt P03433)

>  <IC50 / µM>
0.73

$$$$

Entry `CS(=O)(=O)NCc1cc(=O)c(O)co1` , Polymerase acidic protein (Influenza A virus (A/Puerto Rico/8/1934(H1N1)), UniProt P03433) data, IC50 value: 4.8

Record for `CN(Cc1cc(=O)c(O)co1)c1cccc(F)c1` under target or system Polymerase acidic protein (Influenza A virus (A/Puerto Rico/8/1934(H1N1)), UniProt P03433): IC50 reported as 3.2

// IC50 (Polymerase acidic protein (Influenza A virus (A/Puerto Rico/8/1934(H1N1)), UniProt P03433)) for `CCOC(=O)c1c(C)n(-c2ccc(Oc3ccccc3)cc2)cc(O)c1=O` = 5.2

Response field IC50 (Polymerase acidic protein (Influenza A virus (A/Puerto Rico/8/1934(H1N1)), UniProt P03433)) for item `COc1cccc(CNC(=O)c2c(C)occ(O)c2=O)c1` : 22.1
